EXPERIMENTAL DETAILS: Stat Signaling Pathway (AID 446);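 further: ME-180 cervical cancer cells given 40 pM IL-6 alongside compound; SIE-controlled beta-lactamase reporter measured as 460/530 nm FRET emission ratio; on the % scale 0 is the no-effect control and ±100 the full control effect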
CONDITION DETAILS: ME-180 (cervical carcinoma) SIE beta-lactamase reporter, IL-6 stimulated, 5 h; at 17.2 µM (top of the series) unless noted
Records with an inconclusive call do not appear. Activity calls are given as the source filed them. The call rests on the fitted dose curve; in most records, active means well fitted curve in either direction with a large enough effect (not every such curve was filed as active); inconclusive means small, poorly fitted or top-dose-only effect, or another doubt; inactive means flat fitted curve, though single readings scatter.
Recorded activity, negative = inhibition, one value per entry.

Answered cases to consult:
COMPOUND: COc1cccc(/C=C2/CN(C)CC3=C2OC(N)=C(C#N)C3c2cccc(OC)c2)c1 (configuration not stated)
activity, negative = inhibition: -1.9% (inactive)
//
COMPOUND: O=C(NCc1cccnc1)NC(C(F)(F)F)C(F)(F)F
activity, negative = inhibition: 8.58% (inactive)
//
COMPOUND: CSc1ccccc1NC(=O)c1c(Br)cnn1C
activity, negative = inhibition: 1.88% (inactive)
//
COMPOUND: COC(=O)CNC(=O)c1c(C)cc(=O)oc1C
activity, negative = inhibition: 5.86% (inactive)
//
COMPOUND: CSc1nc(N)nc(SCC(=O)CC(=O)OC(C)C)c1C#N
activity, negative = inhibition: -1.28% (inactive)

Which value of activity, negative = inhibition has been reported for C[C@H](N)C1CCC(C(=O)Nc2ccncc2)CC1 (some centres not stated) in the records?
-8.56% [at 38 µM] (inactive)

Subsequent entry: CCOC(=O)c1c(CN2CCCCC2)oc2ccc(OC)cc12
0.706% (inactive)

Next entry: Fc1ccc(OCCOCCNCC2CCCO2)cc1 (configuration not stated)
21.6% (inactive)

Repeat with CC(O)CNc1nc2c(c(=O)n(C)c(=O)n2C)n1Cc1cccc(C(F)(F)F)c1 (configuration not stated)
-0.279% (inactive)

Please give the result for CC1(C)CNC(=O)c2sc(N3CCOCC3)nc2C1 too.
3.19% (inactive)

Could you do the same for O=C1C(=O)N(CCN2CCOCC2)C(c2ccccn2)/C1=C(/O)c1ccc(F)cc1 (configuration not stated) , please?
-1.73% (inactive)

Further, for Cc1nc(-c2cn[nH]c2)c2cc(C)oc2n1 ?
-3.87% (inactive)
